Experiment: Pharmacokinetic parameter half-life was evaluated in 10% PEG suspension at a dose of 20 mg/kg orally
Type: ADME, organism-based
Design: dose 20 mg/kg, route oral
Conditions: in vivo, po
measured_endpoint: half-life (h)

[[record]]
compound = "C[C@](Cc1c[nH]c2ccccc12)(NC(=O)OC1C2CC3CC(C2)CC1C3)C(=O)N[C@@H]1CCCC[C@H]1O (stereo partly specified)"
quantitative_result = 1.1


###

Collected Ratio values appear next to each entry.
Assay: Ratio of IC50 towards CCK-A receptor and CCK-B receptor
measured_endpoint: Ratio

[[record]]
molecule = "C[C@](Cc1c[nH]c2ccccc12)(NC(=O)OC1C2CC3CC(C2)CC1C3)C(=O)NC1(CO)CCCC1 (stereo partly specified)"
result = 5.3

[[record]]
molecule = "C[C@](Cc1c[nH]c2ccccc12)(NC(=O)OC1C2CC3CC(C2)CC1C3)C(=O)NC(Cc1ccccc1)Cc1ccccc1 (stereo partly specified)"
result = 112

[[record]]
molecule = "C[C@](Cc1c[nH]c2ccccc12)(NC(=O)OC1C2CC3CC(C2)CC1C3)C(=O)N[C@H]1CCCCC[C@@H]1O (stereo partly specified)"
result = 65

[[record]]
molecule = "C[C@](Cc1c[nH]c2ccccc12)(NC(=O)OC1C2CC3CC(C2)CC1C3)C(=O)NN1CC2CCC(CC2)C1 (stereo partly specified)"
result = 238

[[record]]
molecule = "COC(=O)C1(NC(=O)[C@@](C)(Cc2c[nH]c3ccccc23)NC(=O)OC2C3CC4CC(C3)CC2C4)CCCCC1 (stereo partly specified)"
result = 10.4

[[record]]
molecule = "C[C@](Cc1c[nH]c2ccccc12)(NC(=O)OC1C2CC3CC(C2)CC1C3)C(=O)NN1CCCCCC1 (stereo partly specified)"
result = 248

[[record]]
molecule = "C[C@](Cc1c[nH]c2ccccc12)(NC(=O)OC1C2CC3CC(C2)CC1C3)C(=O)NC1CCCCC1C(=O)O (stereo partly specified)"
result = 708

[[record]]
molecule = "C[C@](Cc1c[nH]c2ccccc12)(NC(=O)OC1C2CC3CC(C2)CC1C3)C(=O)NC1CC2CCC1C2 (stereo in doubt; 22)"
result = 7.5

[[record]]
molecule = "C[C@](Cc1c[nH]c2ccccc12)(NC(=O)OC1C2CC3CC(C2)CC1C3)C(=O)CNC1CCCCC1 (stereo partly specified)"
result = 10.6

[[record]]
molecule = "C[C@](Cc1c[nH]c2ccccc12)(NC(=O)OC1C2CC3CC(C2)CC1C3)C(=O)N[C@@H]1CCCCC[C@H]1O (stereo partly specified)"
result = 267

[[record]]
molecule = "COC[C@@H]1CCCN1NC(=O)[C@@](C)(Cc1c[nH]c2ccccc12)NC(=O)OC1C2CC3CC(C2)CC1C3 (stereo partly specified)"
result = 105

[[record]]
molecule = "C[C@](Cc1c[nH]c2ccccc12)(NC(=O)OC1C2CC3CC(C2)CC1C3)C(=O)NN1CCCC1 (stereo partly specified)"
result = 82

[[record]]
molecule = "C[C@](Cc1c[nH]c2ccccc12)(NC(=O)OC1C2CC3CC(C2)CC1C3)C(=O)NC1(CO)CCCCC1 (stereo partly specified)"
result = 12.5

[[record]]
molecule = "COC(=O)CC(CC(=O)OC)NC(=O)[C@@](C)(Cc1c[nH]c2ccccc12)NC(=O)OC1C2CC3CC(C2)CC1C3 (stereo partly specified)"
result = 5.5

[[record]]
molecule = "C[C@](Cc1c[nH]c2ccccc12)(NC(=O)OC1C2CC3CC(C2)CC1C3)C(=O)NC1CCCCC1 (stereo partly specified)"
result = 48

[[record]]
molecule = "C[C@](Cc1c[nH]c2ccccc12)(NC(=O)OC1C2CC3CC(C2)CC1C3)C(=O)NC1(C(=O)O)CCCCC1 (stereo partly specified)"
result = 18.4

